Values compiled from patent US20140348747A1.

# tested on: VT
# assay setup: modification not given
recorded endpoint: Kd
Field note: include the unit after the figure.

Kd reading for NVSGWRLFKKISN [NLpep78] : 13.1 nM
